Values were extracted from patent US20250163038A1.

System: Jurkat (clone E6-1) cells with NFAT luciferase reporter
Assay: Jurkat reporter assay (NFAT Luciferase)
Assay type: cell-based
Details: Homo sapiens; Jurkat NFAT luciferase reporter cells, anti-CD3 stimulation, 6 hr; read-out: Jurkat NFAT EC50
Record form. Attribute: EC50. Fill in for each entry.

Some compounds with known EC50 results, for comparison:
INSERT INTO results (molecule_smiles, measured_attribute, endpoint_result) VALUES
  ('Cn1cnnc1-c1cc(F)ccc1-c1cccc(-c2nc3cc(CNCC4(F)CCC4)cc(C(F)(F)F)c3o2)c1', 'EC50', '200 to 1000 nM'),
  ('Cn1cnnc1-c1cc(F)ccc1-c1cc(-c2nc3cc(C(C)(C)O)c(F)c(F)c3o2)nc(C2CC2)c1', 'EC50', '1000 to 10000 nM'),
  ('C[C@H]1CCCN(Cc2cc(F)c3oc(-c4cc(-c5ccc(C#N)cc5-c5nncn5C)cc(C5CC5)n4)nc3c2)C1', 'EC50', '< 200 nM'),
  ('CO[C@H]1CCCN(Cc2cc(C(F)(F)F)c3oc(-c4cccc(-c5ccc(F)cc5-c5nncn5C)c4)nc3c2)C1', 'EC50', '200 to 1000 nM'),
  ('Cn1cnnc1-c1cc(F)ccc1-c1cccc(-c2nc3cc(CN[C@@H]4CCC[C@@H]4O)cc(C(F)(F)F)c3o2)c1', 'EC50', '200 to 1000 nM'),
  ('COCC(C)(C)NCc1cc(C(F)(F)F)c2oc(-c3cccc(-c4ccc(F)cc4-c4nncn4C)c3)nc2c1', 'EC50', '1000 to 10000 nM');

// input: 6 compounds below; output: EC50 for each
1. Cn1cnnc1-c1cc(Cl)ccc1-c1cccc(-c2nc3cc(CO)ccc3o2)c1
2. Cn1cnnc1-c1cc(F)ccc1-c1cccc(-c2nc3cc(CNCC4COC4)c(F)c(F)c3o2)c1
3. COC[C@@H](C)NCc1cc(C(F)(F)F)c2oc(-c3cccc(-c4ccc(F)cc4-c4nncn4C)c3)nc2c1
4. Cn1cnnc1-c1cc(Cl)ccc1-c1cccc(-c2nc3cc(CN[C@@H]4CCC[C@@H]4O)ccc3o2)c1
5. COCCNCc1cc(C(F)(F)F)c2[nH]c(-c3cc(-c4ccc(F)cc4-c4nncn4C)cc(C4CC4)n3)nc2c1
6. Cn1cnnc1-c1cc(F)ccc1-c1cccc(-c2nc3cc(CN[C@@H]4CCC[C@@H]4O)cc(C(C)(C)C)c3o2)c1

1. 10000 to 50000 nM
2. < 200 nM
3. 200 to 1000 nM
4. < 200 nM
5. < 200 nM
6. < 200 nM

* * *

Record form. Attribute: EC50. Fill in for each entry.
System: Jurkat (clone E6-1) cells with NFAT luciferase reporter
Experiment: Jurkat reporter assay (NFAT Luciferase)
Type: cell-based
Conditions: Homo sapiens; Jurkat NFAT luciferase reporter cells, anti-CD3 stimulation, 6 hr; read-out: Jurkat NFAT EC50

// input: 3 compounds below; output: EC50 for each
1. Cn1cnnc1-c1cc(F)ccc1-c1cc(-c2nc3cc(CN4CC(F)C4)cc(F)c3o2)nc(C2CC2)c1 [AFP-3]
2. Cn1cnnc1-c1cc(F)ccc1-c1cccc(-c2nc3cc(CNCC4(O)CC4)cc(C(F)(F)F)c3[nH]2)c1 [BV-1]
3. COCC(C)(C)NCc1cc(C)c2oc(-c3cc(-c4ccc(F)cc4-c4nncn4C)cc(C4CC4)n3)nc2c1 [AGJ-1]

1: 1 to 10 µM; 2: 0.2 to 1 µM; 3: 0.2 to 1 µM

// input: 3 compounds below; output: EC50 for each
1. CCNc1cc(-c2ccc(F)cc2-c2nncn2C)cc(-c2nc3cc(C(=O)OC)cc(C(F)(F)F)c3o2)n1 [AEK-2]
2. Cc1cc([C@@H](C)NCC2CCC2)cc2nc(-c3cc(-c4ccc(F)cc4-c4nncn4C)cc(C4CC4)n3)oc12 [AGY-1]
3. C[C@H]1CCCN(Cc2cc(C(F)(F)F)c3oc(-c4cc(-c5ccc(F)cc5-c5nncn5C)cc(C5CC5)n4)nc3c2)C1 [ADO-1]

1. 1 to 10 µM
2. < 0.2 µM
3. < 0.2 µM

// input: 3 compounds below; output: EC50 for each
1. COCCN(Cc1cc(C(F)(F)F)c2oc(-c3cccc(-c4ccc(F)cc4-c4nncn4C)c3)nc2c1)CC(C)(C)O [EZ-3]
2. Cn1cnnc1-c1cc(F)ccc1-c1cccc(-c2nc3cc(CN[C@H]4CCC[C@H]4O)cc(C(F)(F)F)c3o2)c1 [HI-2]
3. Cn1cnnc1-c1cc(F)ccc1-c1cc(-c2nc3cc(CNCC(C)(C)O)c(F)c(F)c3o2)nc(C2CC2)c1 [AGF-1]

["1 to 10 µM", "< 0.2 µM", "< 0.2 µM"]
